tested on: CASKI; assay: Primary qHTS to identify gynecologic anti-cancer compounds using libraries of approved drugs and bioactive compounds (AID 1345084); conditions: Gynecologic cancer cell panel viability, ATPlite luminescence, 48 h; series mostly up to 57.5 µM; also: nearly all actives have a fitted effect of over 55% in size
Records with an inconclusive call do not appear. Activity calls are given as the source filed them. Calls follow the shape of the dose curve; as a rule, active = well fitted cell-killing curve with a large enough effect; inconclusive = small, poorly fitted or top-dose-only effect, or effect the other way; inactive = flat fitted curve, though single readings scatter.
Please answer using one outcome listed in active, inactive

Problem: # lookup: test call for OC[C@H]1O[C@@H](n2cnc3c(=S)nc[nH]c32)[C@H](O)[C@@H]1O
Result: active

Problem: What did the test return for CCOC(=O)OC(C)OC1=C(C(=O)Nc2ccccn2)N(C)S(=O)(=O)c2ccccc21 (stereo not given) ?
Result: inactive

Problem: Outcome logged for CC(=O)Nc1c(I)cc(I)c(C(=O)O)c1I in this assay:
Result: inactive

Problem: Recorded call for Cc1c(C)n(Cc2ccccc2)c2ccc(C(=O)OCCN(C)C)cc12 ?
Result: inactive

Problem: Tell me the recorded outcome of this test for Cc1cc(N)c2cc(NC(=O)Nc3ccc4nc(C)cc(N)c4c3)ccc2n1 .
Result: inactive

---
Problem: Outcome logged for COc1cccc(OC)c1C(=O)N[C@@H]1C(=O)N2[C@@H]1SC(C)(C)[C@@H]2C(=O)O in this assay:
Result: inactive

Problem: Recorded test call requested for CC(=O)Oc1ccc2c(c1)CC[C@@H]1[C@@H]2CC[C@]2(C)[C@@H](O)CC[C@@H]12
Result: inactive

Problem: What was the test verdict on C=C1C[C@H]2[C@@H]3C=C(C)C4=CC(=O)CC[C@]4(C)[C@H]3CC[C@]2(C)[C@@]1(OC(C)=O)C(C)=O ?
Result: inactive

###

assay: qHTS of pediatric cancer cell lines to identify multiple opportunities for drug repurposing: Confirmatory screen for U-2 OS cells (AID 1347122); conditions: U-2 OS osteosarcoma cell viability; series mostly up to 45.9 µM; also: nearly all actives have a fitted effect of over 65% in size; also: potency is read from the fitted curve at half-maximal effect
Results filed as inconclusive are left out. Active and inactive are the calls of the source. The call rests on the fitted dose curve; in most records, active means well fitted cell-killing curve with a large enough effect; inconclusive means small, poorly fitted or top-dose-only effect; inactive means no such curve, though single readings can be large or run the other way.
assay.endpoint: Potency

Reference set (4 entries):
Problem: If you can, please state the reported Potency value of NC(CO)(CO)CO .
Result: inactive

Problem: Given the entry COCc1c(C(C)C)nc(C(C)C)c(/C=C/[C@@H](O)C[C@@H](O)CC(=O)O)c1-c1ccc(F)cc1 , report its measured Potency.
Result: 0.261 µM (active)

Problem: Which Potency value is on record for C[C@]12C=CC(=O)C=C1CC[C@@H]1[C@@H]2[C@@H](O)C[C@@]2(C)[C@H]1CC[C@]2(O)C(=O)CO ?
Result: inactive

Problem: Dear colleague, I am looking for the recorded Potency of the following molecule: O=C(CCCN1CCC(O)(c2ccc(Br)cc2)CC1)c1ccc(F)cc1
Result: inactive

Continuing:
Problem: What measured Potency goes with CN(C)C(=S)SC(=S)N(C)C ?
Result: inactive

Problem: // Potency lookup, key: CC(=O)OCC(=O)[C@@]12N=C(C)O[C@@H]1C[C@H]1[C@@H]3CCC4=CC(=O)C=C[C@]4(C)[C@H]3[C@@H](O)C[C@@]12C
Result: inactive

Problem: Query (molecule): CC(=O)OCC(=O)[C@@]1(O)CC[C@H]2[C@@H]3CCC4=CC(=O)C=C[C@]4(C)[C@H]3[C@@H](O)C[C@@]21C ; field requested: Potency
Result: inactive

Problem: GET /values?readout=Potency&item= CCOc1ccc2nc3cc(N)ccc3c(N)c2c1
Result: 0.585 µM (active)

Problem: Please give the measured Potency for this molecule: Oc1ccc(O)cc1
Result: inactive

Problem: Given C[C@]12CCC(=O)C=C1CC[C@H]1[C@@H]3CC[C@](O)(C(=O)CO)[C@@]3(C)C[C@H](O)[C@@]12F , state its recorded Potency.
Result: inactive

###

system: ECU; test: qHTS profiling for inhibitors of Plasmodium falciparum proliferation (AID 504749); also: nearly all actives have a fitted effect of over 60% in size; also: potency is read from the fitted curve at half-maximal effect; conditions: P. falciparum in erythrocytes, SYBR Green DNA, 72 h; series mostly up to 28.7 µM
Inconclusive results are not listed. Active and inactive are the calls of the source. Calls follow the shape of the dose curve; as a rule, active = well fitted inhibition curve with a large enough effect; inconclusive = small, poorly fitted or top-dose-only effect; inactive = flat fitted curve, though single readings scatter.
assay.endpoint: Potency

# count of solved cases: 4
Problem: Could you share which Potency value was measured for CCOc1ccc2nc3cc(N)ccc3c(N)c2c1 ?
Result: 8.91 µM (active)

Problem: State the recorded Potency for this entry: C#C[C@]1(OC(C)=O)CC[C@H]2[C@@H]3CCC4=C[C@@H](OC(C)=O)CC[C@@H]4[C@H]3CC[C@@]21C
Result: inactive

Problem: Look up Potency: CC(O)(P(=O)(O)O)P(=O)(O)O
Result: inactive

Problem: Look up Potency: CC(C)(C)CC(C)(C)c1ccc(O)c(Cc2ccc(Cl)cc2Cl)c1
Result: 2 µM (active)

Shift focus to the following entry.
Problem: Which measured Potency value corresponds to CCOC(=O)c1cccc(N)c1 ?
Result: inactive

###

assay: qHTS assay for small molecule agonists of the antioxidant response element (ARE) signaling pathway (AID 651741); conditions: HepG2 ARE-bla reporter, beta-lactamase FRET ratio, 16 h; series mostly up to 96 µM
Inconclusive results are not listed. Activity calls are given as the source filed them. The call rests on the fitted dose curve; in most records, active means well fitted activation curve with a large enough effect in the signal ratio; inconclusive means small, poorly fitted or top-dose-only effect, or effect the other way, or a change in a side signal; inactive means flat fitted curve, though single readings scatter; the % refers to the signal ratio.
Field 'call' accepts active, inactive

Problem: // return assay outcome for C=C(CC)C(=O)c1ccc(OCC(=O)O)c(Cl)c1Cl
Result: active

Problem: Please state the recorded outcome for this compound: CC(O)C(=O)O (stereo not given)
Result: inactive

Problem: What was the test verdict on CC(=O)O[C@]1(C(C)=O)CC[C@H]2[C@@H]3C[C@H](C)C4=CC(=O)CC[C@]4(C)[C@H]3CC[C@@]21C ?
Result: active

Problem: Call for entry O=C1OC(c2ccc(O)cc2)(c2ccc(O)cc2)c2ccccc21 :
Result: inactive

Problem: State the result this test recorded for Nc1ccc(C(=O)O)cc1 .
Result: inactive

Problem: What is the recorded call for this compound in the test? O=C(O)CCCCC(=O)O
Result: inactive

New cases:
Problem: Hi, do you know how O=c1ccc2ccccc2o1 came out in this test?
Result: active

Problem: Record lookup: outcome of this test for CCCCCCc1ccc(O)cc1O ?
Result: active

Problem: Record lookup: outcome of this test for C=CCc1ccc(O)c(OC)c1 ?
Result: inactive

Problem: Fill in: this test's call for Oc1ccc(O)cc1 is ___
Result: active

###

test system: CP297; experiment: qHTS profiling for inhibitors of Plasmodium falciparum proliferation (AID 504749); also: nearly all actives have a fitted effect of over 60% in size; conditions: P. falciparum in erythrocytes, SYBR Green DNA, 72 h; series mostly up to 28.7 µM
Records with an inconclusive call do not appear. The source made the active and inactive calls. Calls follow the shape of the dose curve; as a rule, active = well fitted inhibition curve with a large enough effect; inconclusive = small, poorly fitted or top-dose-only effect; inactive = flat fitted curve, though single readings scatter.
Outcome field: choose from active, inactive

Reference set, count: 5
Problem: Which outcome was entered for the compound CCCOC(C(=O)OC1CCN(C)CC1)(c1ccccc1)c1ccccc1 in this test?
Result: inactive

Problem: Which outcome did this test record for the compound CC(C)(Oc1ccc(Cl)cc1)C(=O)O ?
Result: inactive

Problem: Hey, what did the test say about CCN(CC)CCOC(=O)C(c1ccccc1)C1CCCCC1 (stereo not drawn) ?
Result: inactive

Problem: Returns: the outcome recorded for CC(=O)OCC(=O)[C@@]1(OC(C)=O)[C@@H](C)C[C@H]2[C@@H]3C[C@H](F)C4=CC(=O)C=C[C@]4(C)[C@@]3(F)[C@@H](O)C[C@@]21C in this assay.
Result: inactive

Problem: Recorded test outcome, item CCCCCCCCCCCCCCCC[N+](C)(C)CC
Result: active

Others:
Problem: // outcome(item) with item = O=C(Nc1ccc(Oc2ccc(Cl)cc2)c(Cl)c1)c1cc(I)cc(I)c1O
Result: inactive

Problem: Outcome logged for Cc1c(C(C)C)c(=O)n(-c2ccccc2)n1C in this assay:
Result: inactive

Problem: // return assay outcome for Cc1cc(=O)n(-c2ccccc2)n1C
Result: inactive

Problem: Field: outcome | Entry: CCCCOc1ccc(OCCCN2CCOCC2)cc1
Result: inactive

Problem: Write down the call the test reported for this compound. Item: CC(C)(C)CC(C)(C)c1ccc(O)c(Cc2ccc(Cl)cc2Cl)c1
Result: active

Problem: Hi, do you know how Nc1cc(Cl)c(NC2=NCCN2)c(Cl)c1 came out in this test?
Result: inactive

Problem: Could you please tell me the result logged for COC(=O)[C@H]1[C@H]2C[C@H]3c4[nH]c5ccccc5c4CCN3C[C@H]2CC[C@@H]1O in this assay?
Result: inactive

Problem: Status in this test for CC(=O)Oc1ccc(C(=C2CCCCC2)c2ccc(OC(C)=O)cc2)cc1 ?
Result: inactive

Problem: Test call, this compound: C=C(CC)C(=O)c1ccc(OCC(=O)O)c(Cl)c1Cl
Result: inactive

Problem: Query: recorded result category for CCC(=O)c1c(O)cc(O)cc1O in this test
Result: inactive

Problem: What is the recorded call for this compound in the test? O=C(CCCN1CCC(O)(c2ccc(Br)cc2)CC1)c1ccc(F)cc1
Result: inactive

Problem: Just curious, what result did NCCc1ccn[nH]1 get here?
Result: inactive

Problem: Tell me the assay call for CC(C)(C)CC(C)(C)c1ccc(OCCOCC[N+](C)(C)Cc2ccccc2)cc1 please.
Result: active

Problem: Give the logged outcome of this assay for the following compound: CC(C)COC(=O)OCN1C(=O)CN(CCN2CC(=O)N(COC(=O)OCC(C)C)C(=O)C2)CC1=O
Result: inactive

Problem: How was C[C@]12CCC(=O)C=C1CC[C@H]1[C@@H]3CC[C@](O)(C(=O)CO)[C@@]3(C)C[C@H](O)[C@@]12F classified in this test?
Result: inactive
